biological target: PKCδ (Homo sapiens, UniProt Q05655)
Sequence (Q05655 whole entry): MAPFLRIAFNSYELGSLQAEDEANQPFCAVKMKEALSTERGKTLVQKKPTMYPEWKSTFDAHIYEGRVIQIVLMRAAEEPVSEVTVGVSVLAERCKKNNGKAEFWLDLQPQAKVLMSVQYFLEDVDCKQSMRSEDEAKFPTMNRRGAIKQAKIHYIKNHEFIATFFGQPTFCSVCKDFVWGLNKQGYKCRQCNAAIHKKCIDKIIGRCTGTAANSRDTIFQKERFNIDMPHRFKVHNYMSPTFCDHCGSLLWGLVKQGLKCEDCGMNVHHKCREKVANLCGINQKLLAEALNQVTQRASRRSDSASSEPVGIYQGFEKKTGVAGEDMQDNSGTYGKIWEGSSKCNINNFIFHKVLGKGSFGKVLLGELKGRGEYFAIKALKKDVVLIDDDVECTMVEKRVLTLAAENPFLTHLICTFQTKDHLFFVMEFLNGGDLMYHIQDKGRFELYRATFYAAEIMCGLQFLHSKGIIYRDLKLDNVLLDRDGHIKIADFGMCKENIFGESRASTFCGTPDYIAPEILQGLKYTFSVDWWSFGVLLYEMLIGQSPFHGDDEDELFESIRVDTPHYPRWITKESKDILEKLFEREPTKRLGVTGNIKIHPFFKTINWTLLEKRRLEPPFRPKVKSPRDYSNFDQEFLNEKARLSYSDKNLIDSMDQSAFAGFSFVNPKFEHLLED
Result type: IC50 (nM)
Report only the number, with the unit nM understood.

Problem: Consider the compound CC(=O)c1c(O)c(C)c(O)c(Cc2c(O)c3c(c(C(=O)/C=C/c4ccccc4)c2O)OC(C)(C)C=C3)c1O [rottlerin] and give its measured IC50.
Solution: 200
